Below, each of the molecules is paired with its reported TGI value.
tested on: MCF7 breast; assay: NCI tumour cell line growth inhibition, 48 h

1. O=C(/C=C(\C(=O)c1cccs1)c1cccs1)c1ccc(C(=O)/C=C(\C(=O)c2cccs2)c2cccs2)cc1 ... > 100 µM
2. CCN1C(=NCCO)NS(=O)(=O)c2ccccc21 ... > 100 µM
3. CC(=O)O[C@H]1CC[C@@]2(C)C(=C/C(=N/OCCN3CCCC3)[C@H]3[C@@H]4CC[C@H](OC(C)=O)[C@@]4(C)CC[C@@H]32)C1 ... > 100 µM
4. COC1CC(N)C(O)C(C)O1 (stereo unspecified) ... > 100 µM
5. O=C(O)/C=C/c1ccc2c(c1)CC1(Cc3ccccc3C1)C2 ... > 100 µM

get_value(item= `COc1nc2ccc(COc3ccc(C(=O)O)cc3)cc2nc1OC` , readout=TGI) returns > 100 µM

get_value(item= Cc1cc(O)c(C2=NN(c3ccc(S(N)(=O)=O)cc3)C(/C=C/c3ccccc3)C2)cc1Cl (stereo unspecified) , readout=TGI) returns 16.1 µM

get_value(item= COc1cc(-c2c3c(cc4c2OCO4)[C@@H](Nc2ccc(-c4ccc(-c5ccc(N[C@@H]6c7cc8c(cc7C(c7cc(OC)c(O)c(OC)c7)[C@H]7C(=O)OC[C@H]67)OCO8)cc5)cc4)cc2)[C@H]2COC(=O)[C@@H]2C3)cc(OC)c1O (stereo partly specified) , readout=TGI) returns 12.1 µM

Values were extracted from PubChem BioAssay (NCI).
